# condition-context: in n-pentanol, 298.15 K
experimental-readout: solubility (mole fraction)
One number for each entry.

Requested field: solubility (mole fraction). Item: COCCOC(=O)C1=C(C)NC(C)=C(C(=O)OC(C)C)C1c1cccc([N+](=O)[O-])c1 (stereo unspecified)
0.0131

----------
# condition-context: in acetone, 318.15 K
experimental-readout: solubility (mole fraction)
Answers are plain numbers.

Requested field: solubility (mole fraction). Item: COCCOC(=O)C1=C(C)NC(C)=C(C(=O)OC(C)C)C1c1cccc([N+](=O)[O-])c1 (stereo unspecified)
0.0295

----------
# condition-context: in acetone, 313.15 K
experimental-readout: solubility (mole fraction)
Numbers only.

Requested field: solubility (mole fraction). Item: COCCOC(=O)C1=C(C)NC(C)=C(C(=O)OC(C)C)C1c1cccc([N+](=O)[O-])c1 (stereo unspecified)
0.027

----------
# condition-context: in methanol, 293.15 K
experimental-readout: solubility (mole fraction)
Answers are plain numbers.

Requested field: solubility (mole fraction). Item: COCCOC(=O)C1=C(C)NC(C)=C(C(=O)OC(C)C)C1c1cccc([N+](=O)[O-])c1 (stereo unspecified)
0.0229

----------
# condition-context: in n-butanol, 283.15 K
experimental-readout: solubility (mole fraction)
Answers are plain numbers.

Requested field: solubility (mole fraction). Item: COCCOC(=O)C1=C(C)NC(C)=C(C(=O)OC(C)C)C1c1cccc([N+](=O)[O-])c1 (stereo unspecified)
0.0117

----------
# condition-context: in methyl acetate, 293.15 K
experimental-readout: solubility (mole fraction)
One number for each entry.

Requested field: solubility (mole fraction). Item: COCCOC(=O)C1=C(C)NC(C)=C(C(=O)OC(C)C)C1c1cccc([N+](=O)[O-])c1 (stereo unspecified)
0.00647

----------
# condition-context: in methyl acetate, 298.15 K
experimental-readout: solubility (mole fraction)
Give bare numbers.

Requested field: solubility (mole fraction). Item: COCCOC(=O)C1=C(C)NC(C)=C(C(=O)OC(C)C)C1c1cccc([N+](=O)[O-])c1 (stereo unspecified)
0.00718

----------
# condition-context: in n-butanol, 313.15 K
experimental-readout: solubility (mole fraction)
Give bare numbers.

Requested field: solubility (mole fraction). Item: COCCOC(=O)C1=C(C)NC(C)=C(C(=O)OC(C)C)C1c1cccc([N+](=O)[O-])c1 (stereo unspecified)
0.0217

----------
# condition-context: in ethanol, 313.15 K
experimental-readout: solubility (mole fraction)

Requested field: solubility (mole fraction). Item: COCCOC(=O)C1=C(C)NC(C)=C(C(=O)OC(C)C)C1c1cccc([N+](=O)[O-])c1 (stereo unspecified)
0.0303

----------
# condition-context: in sec-butanol, 308.15 K
experimental-readout: solubility (mole fraction)
One number for each entry.

Requested field: solubility (mole fraction). Item: COCCOC(=O)C1=C(C)NC(C)=C(C(=O)OC(C)C)C1c1cccc([N+](=O)[O-])c1 (stereo unspecified)
0.0181

----------
# condition-context: in n-butanol, 288.15 K
experimental-readout: solubility (mole fraction)
Numbers only.

Requested field: solubility (mole fraction). Item: COCCOC(=O)C1=C(C)NC(C)=C(C(=O)OC(C)C)C1c1cccc([N+](=O)[O-])c1 (stereo unspecified)
0.013

----------
# condition-context: in n-propanol, 303.15 K
experimental-readout: solubility (mole fraction)
One number for each entry.

Requested field: solubility (mole fraction). Item: COCCOC(=O)C1=C(C)NC(C)=C(C(=O)OC(C)C)C1c1cccc([N+](=O)[O-])c1 (stereo unspecified)
0.0195

src = BigSolDB 2.1
